- Test system: OVCAR-8 ovarian
- MEASUREMENT_PROTOCOL: NCI tumour cell line growth inhibition, 48 h
QUANTITY_NAME: TGI

Q. Tell me the measured TGI of CC(=O)OC(C)(C)C1CCC(C)(C(O)COc2ccc(CCNC(=O)c3ccccc3)cc2)O1 (stereo not given) , please.
A. > 100 µM

Q. Then what about the compound N#Cc1nn(-c2ccc(Cl)cc2)c(N)c2c(=N)n3nc(-c4ccccc4)cc3nc12 ?
A. > 100 µM

Q. Then what about the compound Cc1cc(Cl)ccc1NC(=O)C1C(=O)N(c2ccc(Cl)cc2C)C(=O)/C1=N\N (stereo not given) ?
A. > 100 µM

Q. Then what about the compound Cc1cn2c(/C=C3/C(=O)Nc4ccccc43)c(-c3ccccc3)nc2s1 ?
A. > 100 µM

Q. Then what about the compound Cc1cc(Cl)ccc1N1C(=O)C(=O)C(c2nc3ccccc3s2)C(=O)C1=O ?
A. > 100 µM

Q. Then what about the compound COc1ccc(Cc2ccccc2C(=O)O)c2ccccc12 ?
A. > 100 µM

Q. Then what about the compound N#Cc1c2ccccc2c2nnc3cc(Cl)c(Cl)cc3n12 ?
A. > 100 µM

Q. Then what about the compound CN(C)/[N+]([O-])=N/Oc1cc(Nc2ccc(C(=O)O)cc2)c([N+](=O)[O-])cc1[N+](=O)[O-] ?
A. 52.1 µM

Q. Then what about the compound O=C(Nc1ccccc1Cl)c1ccc(NC2=C(Cl)C(=O)N(Cc3ccccc3)C2=O)cc1 ?
A. 36.9 µM

Q. Then what about the compound Brc1ccc(-c2ccc(-c3ccc(Br)s3)s2)s1 ?
A. > 100 µM

###

- System: NCI-H23 lung
- MEASUREMENT_PROTOCOL: NCI tumour cell line growth inhibition, 48 h; in the data active = GI50 below about 0.43 µM; inactive = the rest
Could you please pick one outcome from this set? active, inactive

Q. Which result was noted for this molecule in the test: Cc1ccc(/C=C2\CCOC2=O)cc1
A. inactive

Q. Then what about the molecule CCCCCCCCSC1=CC(=O)C(OC)=C(OC)C1=O ?
A. inactive

Q. Then what about the molecule Cc1cc(S(N)(=O)=O)c(S/C(=N\NS(=O)(=O)c2ccc(Cl)cc2)c2ccc(Cl)cc2)cc1Cl ?
A. inactive

Q. Then what about the molecule CO/N=C1/c2cc(OC)ccc2-c2c(NOC)nc3ccccc3c21 ?
A. inactive

Q. Then what about the molecule COc1ccc(C(=O)Nc2cccc(C3CC(=O)c4c(cc(OC)c(OC)c4OC)O3)c2)cc1 (stereo not given) ?
A. inactive

Q. Then what about the molecule CC(C)(C)CC(C)(C)Cc1ccc(OCCOCC[N+](C)(C)Cc2ccccc2)cc1 ?
A. inactive

Q. Then what about the molecule COc1cccc2c1C(=O)c1c(O)c3c(c(O)c1C2=O)C[C@@](O)(C(C)=O)C[C@@H]3OC1CC(N)C(O)C(C)O1 (stereo not given in full) ?
A. active

Q. Then what about the molecule O=C1NC(=NCCc2ccccc2Cl)S/C1=C\c1ccc2ncccc2c1 ?
A. inactive

Q. Then what about the molecule Cc1ccc(/C=C(\C#N)n2nnc3cc(F)c(F)cc32)cc1 ?
A. inactive

Q. Then what about the molecule CCOc1ccc2c(c1)/C(=C\C=C\C1CC(C)C3CC(OCC)CCC3N1CC)CC(C)N2CC (stereo not given) ?
A. inactive

###

- Tested on: M14 melanoma
- MEASUREMENT_PROTOCOL: NCI tumour cell line growth inhibition, 48 h
Provide the reported GI50 of each item.

Q. Tell me the measured GI50 of O=C(NC(=S)NS(=O)(=O)c1ccc(N2N=C3c4ccccc4CC3C2c2cccs2)cc1)c1ccccc1 (centres undefined) , please.
A. 21.5 µM

Q. Then what about the compound C=C1C(=O)O[C@H]2[C@H]1CC/C(COC(=O)CCC(=O)OC/C1=C/CC[C@@]3(C)O[C@H]3[C@H]3OC(=O)C(=C)[C@@H]3CC1)=C\CC[C@@]1(C)O[C@@H]21 ?
A. 1.6 µM

Q. Then what about the compound COc1cc(/C=C/C(=O)c2ccc(Nc3nc(Nc4ccc(F)cc4)nc(Nc4ccc(F)cc4)n3)cc2)cc(OC)c1OC ?
A. 6.55 µM

Q. Then what about the compound CC1SC(c2cccs2)N(NC(=O)C(O)c2ccccc2)C1=O (centres undefined) ?
A. > 100 µM

Q. Then what about the compound O=C1NC(=NCCc2ccccc2Cl)S/C1=C\c1ccc2ncccc2c1 ?
A. 6.48 µM

Q. Then what about the compound CCCCCCCCSC1=CC(=O)C(OC)=C(OC)C1=O ?
A. 2.06 µM

Q. Then what about the compound Cc1nc2cc(O)c(O)cc2cc1Oc1ccc(NC(=O)Nc2ccc(Cl)c(Cl)c2)cc1 ?
A. 5.97 µM

Q. Then what about the compound CO/N=C1/c2cc(OC)ccc2-c2c(NOC)nc3ccccc3c21 ?
A. > 100 µM

Q. Then what about the compound COC(=O)c1c(-c2ccccc2)csc1NC(=O)c1c(-c2ccccc2)noc1C ?
A. 6.86 µM

###

Provide the reported TGI of each item.
- System: NCI-H23 lung
- MEASUREMENT_PROTOCOL: NCI tumour cell line growth inhibition, 48 h
Respond with the bare value in µM.

Q. Tell me the measured TGI of Fc1ccc(Nc2nc(Nc3ccc(-c4nc5ccccc5[nH]4)cc3)nc(N3CCCC3)n2)cc1 , please.
A. 16.8

Q. Then what about the compound CCC(=O)O[C@@H]1C2C(OC(C)=O)C34COC(C)([C@@H]3C3C(C[C@]3(C)OC(C)=O)[C@@H](OC(=O)c3ccccc3)C4=O)[C@H](OC(C)=O)[C@@]2(OC(C)=O)C[C@@H]1C (some centres undefined) ?
A. 45

Q. Then what about the compound Cc1ccccc1NC(=O)NC(CC(N)=O)c1ccc2c(c1)nc(-c1cccc(Oc3ccc(C(C)(C)C)cc3)c1)n2CCCN1CCCCC1C (centres undefined) ?
A. 9.91

Q. Then what about the compound Cc1ccc(Cl)cc1Nc1nc(C(F)(F)F)ccc1C(=O)Oc1ccc(Cl)cc1 ?
A. 27.8

Q. Then what about the compound CC(=O)C1=CC=C/C1=N\Nc1ccccc1 ?
A. 26.6

###

- Tested on: LOX IMVI melanoma
- MEASUREMENT_PROTOCOL: NCI tumour cell line growth inhibition, 48 h
Provide the reported GI50 of each item.

Q. Tell me the measured GI50 of COc1ccc2c(CNCCCCO)cc3cc4c(cc3c2c1)OCO4 , please.
A. 1.25 µM

Q. Then what about the compound Cc1c2c(nn1-c1ccc(S/N=C3\SCC(=O)CN3c3ccccc3)cc1)-c1ccccc1CC2 ?
A. 5.59 µM

Q. Then what about the compound COC(=O)c1ccc2c(c1)nc(-c1ccc(Cl)cc1)n2-c1cc(C(C)(C)C)[nH]n1 ?
A. 3.7 µM

Q. Then what about the compound CC(O)CN(CCN(CC(C)O)CC(C)O)CC(C)O.O=[N+]([O-])O.[Cu+2] (centres undefined) ?
A. > 100 µM

Q. Then what about the compound Fc1ccc(Nc2nc(Nc3ccc(-c4nc5ccccc5[nH]4)cc3)nc(N3CCCC3)n2)cc1 ?
A. 1.77 µM

Q. Then what about the compound Cn1c(=O)c(Cc2ccc(F)cc2F)cc2cnc(NC3CCOCC3)nc21 ?
A. > 25 µM

Q. Then what about the compound O=C1NC(=NCc2ccccn2)S/C1=C\c1ccc2ncccc2c1 ?
A. 13.1 µM

Q. Then what about the compound CC(CN(CP(=O)([O-])[O-])CP(=O)([O-])[O-])N(CP(=O)([O-])[O-])CP(=O)([O-])[O-].N[C@@H]1CCCC[C@@H]1N.[Pt+2] (centres undefined) ?
A. > 100 µM

Q. Then what about the compound CCN1C(=O)N(c2c(F)c(OC)cc(OC)c2F)Cc2cnc3[nH]c(CN4CCOCC4)cc3c21 ?
A. 2.37 µM

###

- System: LOX IMVI melanoma
- MEASUREMENT_PROTOCOL: NCI tumour cell line growth inhibition, 48 h
Provide the reported TGI of each item.

Q. Tell me the measured TGI of CN(C)CCn1cc(-c2ccc3c(Nc4ccc(CC(=O)Nc5cccc(F)c5)cc4)ncnc3c2)cn1 , please.
A. 3.02 µM

Q. Then what about the compound CC(=O)OC1COC(N2C(=O)C(=O)c3cc(Br)c([N+](=O)[O-])cc32)C(OC(C)=O)C1OC(C)=O (configuration not stated) ?
A. 99 µM

Q. Then what about the compound CC(CN(CP(=O)([O-])[O-])CP(=O)([O-])[O-])N(CP(=O)([O-])[O-])CP(=O)([O-])[O-].N[C@@H]1CCCC[C@@H]1N.[Pt+2] (configuration not stated) ?
A. > 100 µM

Q. Then what about the compound CCCCCCc1cc(C=O)sc1-c1ccc(-c2sc(-c3ccc(-c4ccc(-c5cc(CCCCCC)c(-c6ccc(-c7sc(C=O)cc7CCCCCC)s6)s5)s4)s3)cc2CCCCCC)s1 ?
A. > 100 µM

Q. Then what about the compound OC1(c2ccc(Cl)cc2)c2ccccc2C2=Nc3ccccc3CN21 (configuration not stated) ?
A. > 100 µM

Q. Then what about the compound C(=N\NC1=NCCCN1)/c1ccc(-c2cn3cc(/C=N/NC4=NCCCN4)ccc3n2)cc1 ?
A. > 100 µM

Q. Then what about the compound O=S1(=O)CSc2ccc3ccccc3c2-c2c1ccc1ccccc21 ?
A. > 100 µM
